- Test system: L. tropica promastigotes
- assay-overview: Antileishmanial activity on L. tropica promastigotes (MTT)
- Assay type: cell-based
- measurement-context: Leishmania tropica; 72 h, 23 °C, MTT; read-out: Leishmania Promastigotes IC50, L. tropica
- Protocol: Promastigote stage of L. infantum (MHOM/TN/80/IPT1, kindly provided by Dr. M. Gramiccia and Dr. T. Di Muccio, ISS, Roma) and L. tropica (MHOM/SY/2012/ISS3130) were cultured in RPMI 1640 medium (EuroClone) supplemented with 15% heat-inactivated fetal calf serum (EuroClone, Milan, Italy), 20 mM HEPES, and 2 mM L-glutamine at 23 °C. The MTT (3-[4.5-dimethylthiazol-2-yl]-2.5-diphenyltetrazolium bromide) method was used to estimate the 50% inhibitory concentration (IC50), with some modifications. […]
Readings of IC50 for the listed molecules

{"columns": ["smiles-repr", "IC50 / nM"],
 "data": [
  ["CC1=C(O)C(=O)C=C2C1=CC=C1[C@@]2(C)CC[C@@]2(C)[C@@H]3C[C@](C)(C(=O)NCCCN4CCCCC4)CC[C@]3(C)CC[C@]12C", 210],
  ["CC1=C(O)C(=O)C=C2C1=CC=C1[C@@]2(C)CC[C@@]2(C)[C@@H]3C[C@](C)(C(=O)O)CC[C@]3(C)CC[C@]12C", 490],
  ["C=CCSSCCNC(=O)[C@]1(C)CC[C@]2(C)CC[C@]3(C)C4=CC=C5C(=CC(=O)C(O)=C5C)[C@]4(C)CC[C@@]3(C)[C@@H]2C1", 340]
]}

###

pIC50 by entry:
- system-name: LbHsp90 (Leishmania braziliensis)
- Sequence (A4HL70 entry or part of it): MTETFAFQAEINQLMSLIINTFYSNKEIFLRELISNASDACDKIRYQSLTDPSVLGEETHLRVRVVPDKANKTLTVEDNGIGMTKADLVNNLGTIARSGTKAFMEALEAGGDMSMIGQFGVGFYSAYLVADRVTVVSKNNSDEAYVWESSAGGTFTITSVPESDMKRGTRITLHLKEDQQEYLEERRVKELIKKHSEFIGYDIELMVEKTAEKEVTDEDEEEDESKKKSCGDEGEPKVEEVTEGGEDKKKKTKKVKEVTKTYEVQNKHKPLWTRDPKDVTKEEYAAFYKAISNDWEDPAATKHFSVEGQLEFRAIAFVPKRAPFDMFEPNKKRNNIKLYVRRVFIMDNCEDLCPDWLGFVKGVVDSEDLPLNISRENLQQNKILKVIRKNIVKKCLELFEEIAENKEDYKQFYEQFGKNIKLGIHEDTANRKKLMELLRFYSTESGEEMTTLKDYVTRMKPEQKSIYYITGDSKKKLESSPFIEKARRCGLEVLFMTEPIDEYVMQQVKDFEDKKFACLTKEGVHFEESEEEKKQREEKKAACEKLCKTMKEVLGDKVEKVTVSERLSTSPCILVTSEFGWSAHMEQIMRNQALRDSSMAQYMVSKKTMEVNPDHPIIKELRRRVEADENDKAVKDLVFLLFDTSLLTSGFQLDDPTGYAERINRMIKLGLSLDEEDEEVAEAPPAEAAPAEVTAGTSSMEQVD
- assay-overview: In vitro inhibition of the ATPase activity of LbHsp90 (Malachite Green Phosphate Assay)
- Format: biochemical
- measurement-context: 7 μM LbHsp90, 27 °C, 60 min
pIC50: −log10 of the molar value.
measured-attribute: pIC50

{"columns": ["compound", "measured-attribute", "recorded-value"],
 "data": [
  ["CC1=C(O)C(=O)C=C2C1=CC=C1[C@@]2(C)CC[C@@]2(C)[C@@H]3C[C@](C)(C(=O)NCCCN4CCCCC4)CC[C@]3(C)CC[C@]12C [compound 2]", "pIC50", "< 3.90"],
  ["CC1=C(O)C(=O)C=C2C1=CC=C1[C@@]2(C)CC[C@@]2(C)[C@@H]3C[C@](C)(C(=O)NCCNc4ccnc5cc(Cl)ccc45)CC[C@]3(C)CC[C@]12C [compound 6]", "pIC50", 4.19],
  ["C=CCSSCCNC(=O)[C@]1(C)CC[C@]2(C)CC[C@]3(C)C4=CC=C5C(=CC(=O)C(O)=C5C)[C@]4(C)CC[C@@]3(C)[C@@H]2C1 [compound 10]", "pIC50", "< 3.90"]
]}

###

- System: BMDM
- assay-overview: Cytotoxicity on BMDM (MTT)
- Format: cell-based, mouse
- measurement-context: Mus musculus, BMDM, 72 h, read-out: Healthy Cell Lines IC50, BMDM

{"columns": ["compound", "system-name", "result-units", "IC50"],
 "data": [
  ["COC(=O)[C@]1(C)CC[C@]2(C)CC[C@]3(C)C4=CC=C5C(=CC(=O)C(O)=C5C)[C@]4(C)CC[C@@]3(C)[C@@H]2C1 [PR, pristimerin, reference compound]", "BMDM", "nM", 1270]
]}

Source of measurements: paper PMC7824787
